B1: EHEE_rd2_1257 (parent)
chain: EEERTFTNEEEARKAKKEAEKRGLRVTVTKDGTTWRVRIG

variants of: B1; experiment: folding stability dG (cDNA display proteolysis); higher = more stable; settings: PBS, room temperature
Label Condition met when folding stability dG is at or above 2 kcal/mol; otherwise label Condition not met.

Tell me whether folding stability dG is at least 2 kcal/mol here: `T5K`
Condition not met

# bool: folding stability dG of `T27M` >= 2 kcal/mol
Condition not met

Does folding stability dG meet or surpass 2 kcal/mol for `G32F` ?
Condition not met

Please check the record `R36Q` and state if its folding stability dG is at or above 2 kcal/mol.
Condition not met

Check the entry `V37E` : does folding stability dG equal or exceed 2 kcal/mol?
Condition not met

Form field: folding stability dG at least 2 kcal/mol? Entry: `E11V`
Condition not met

Form field: folding stability dG at least 2 kcal/mol? Entry: `T34D`
Condition not met

folding stability dG >= 2 kcal/mol for `A19M` ?
Condition met

Hi, just wondering whether `R38A` shows folding stability dG of 2 kcal/mol or higher.
Condition not met

Is the recorded value of folding stability dG equal to or greater than 2 kcal/mol for this variant? `V28Y`
Condition not met

Answer whether folding stability dG of `V28L` is greater than or equal to 2 kcal/mol.
Condition met

Please check the record `A19L` and state if its folding stability dG is at or above 2 kcal/mol.
Condition met

Please indicate if the recorded folding stability dG for `I39S` meets or exceeds 2 kcal/mol.
Condition not met

Could you please find out whether `E18D` has folding stability dG that meets 2 kcal/mol or exceeds it?
Condition not met

Tell me whether folding stability dG is at least 2 kcal/mol here: `K30P`
Condition not met

Identify whether the reported folding stability dG of the following variant is 2 kcal/mol or greater: `V28A`
Condition not met

Evaluate `N8D` : folding stability dG at minimum 2 kcal/mol?
Condition not met

Quick check, folding stability dG >= 2 kcal/mol? `E11I`
Condition not met

Could you please find out whether `L24K` has folding stability dG that meets 2 kcal/mol or exceeds it?
Condition not met

In plain terms: is recorded folding stability dG at least 2 kcal/mol for `E18V` ?
Condition not met

Hello, I need to know if `K14A` has measured folding stability dG not below 2 kcal/mol. Thanks!
Condition met

Dear colleague, could you confirm whether `K17I` has folding stability dG at or above 2 kcal/mol?
Condition met

Determine whether measured folding stability dG meets or exceeds 2 kcal/mol for `K30F`
Condition met

Can `G40L` be said to have folding stability dG at or above 2 kcal/mol?
Condition met

Does `R22G` have a reported folding stability dG of at least 2 kcal/mol?
Condition not met

API: above_or_equal(metric=folding stability dG, cutoff=2 kcal/mol) for item `W35E`
Condition not met

In plain terms: is recorded folding stability dG at least 2 kcal/mol for `T27D` ?
Condition not met

Confirm if folding stability dG reported for the variant `D31Y` is 2 kcal/mol or above.
Condition not met

Answer whether folding stability dG of `R25S` is greater than or equal to 2 kcal/mol.
Condition not met

Please check the record `K30H` and state if its folding stability dG is at or above 2 kcal/mol.
Condition met

Is reported folding stability dG greater than or equal to 2 kcal/mol here: `W35L`
Condition not met
